# ASSAY_PROCEDURE: Electrochemical treatment of medium, removal rate of phenolic and furanic compounds
# Format: physicochemical
# CONDITION_PARAMETERS: 1st treatment; 0.5 g/L added to medium; 5 hours at oxidation peak voltage
# Description: In order to measure the removal rate of phenolic and furanic compounds, p-coumaric acid, ferulic acid, syringaldehyde and vanillin were selected as phenolic compounds and furfural and 5-hydroxymethylfurfural were selected as furanic compounds. After adding 0.5 g/L of each of the selected 6 inhibitors to a medium, electric current was flown at each optimum oxidation voltage and then removal rate was measured. […]
Measured Post-treatment concentration, listed per entry.
METRIC: Post-treatment concentration (g/L)

> print(dat)
                                   compound  reported.measurement
1                          COc1cc(C=O)ccc1O                 0.251
2                                O=Cc1ccco1                     0
3                  COc1cc(/C=C/C(=O)O)ccc1O                0.3475
4                      COc1cc(C=O)cc(OC)c1O                 0.109
5                    O=C(O)/C=C/c1ccc(O)cc1                  0.25
6  O=Cc1ccc(CO)o1 [HMF, 5-hydroxymethylfurfural]                     0

###

Form field: oxidation peak voltage (one value per entry).
# ASSAY_PROCEDURE: Cyclic voltammetry, oxidation peak voltage
# Type: physicochemical
METRIC: oxidation peak voltage (V)

> print(dat)
                                   compound  reported.measurement
1           O=Cc1ccco1 [Furfural, furfural]                   1.8
2  COc1cc(C=O)cc(OC)c1O [Syringaldehyde, syringaldehyde]                     2
3  O=Cc1ccc(CO)o1 [HMF, 5-hydroxymethylfurfural]                   1.8
4     COc1cc(C=O)ccc1O [Vanillin, vanillin]                     2

###

# ASSAY_PROCEDURE: Electrochemical treatment of medium, removal rate of phenolic and furanic compounds
# Type: physicochemical
# CONDITION_PARAMETERS: 1st treatment; 0.5 g/L added to medium; 5 hours at oxidation peak voltage; wt %
# Description: In order to measure the removal rate of phenolic and furanic compounds, p-coumaric acid, ferulic acid, syringaldehyde and vanillin were selected as phenolic compounds and furfural and 5-hydroxymethylfurfural were selected as furanic compounds. After adding 0.5 g/L of each of the selected 6 inhibitors to a medium, electric current was flown at each optimum oxidation voltage and then removal rate was measured. […]
Assign 1 to entries whose Removal rate meets or exceeds 80%; assign -1 to the rest.

> print(dat)
                                   compound  classification
1                          COc1cc(C=O)ccc1O              -1
2                  COc1cc(/C=C/C(=O)O)ccc1O              -1
3                    O=C(O)/C=C/c1ccc(O)cc1              -1
4  O=Cc1ccc(CO)o1 [HMF, 5-hydroxymethylfurfural]               1
5                                O=Cc1ccco1               1
